Can you tell me percent of parent for the items I'm about to list?
B1: FLAG-tagged FBXO44 FBA domain (FBXO44^FBA) [human] / RGS2^5–16 peptide (RGS2 degron, Met^5–Met^16) [not stated] (parent complex)
chain 1: FYFLRSLHRNLLHNPCAEEGFEFWSLDVNGGDEWKVEDLSRDQRKEFPNDQVKKYFVTSYYTCLKSQVVDLKAEGYWEELMDTTRPDIEVKDWFAARPDCGSKYQLCVQLLSSAHAPLGTFQPDPATIQQKSDAKWREVSHTFSNYPPGVRYIWFQHGGVDTHYWAGWYGPRVTNSSITIGP
chain 2: MFLAVQHDCRPM

- Variants of: B1
- METHOD_DESCRIPTION: peptide microarray (PEPperPRINT), α-FLAG fluorescence; three independent experiments with three technical replicates each; parent: 100; read off a plot

// field: percent of parent; key: chain 2 H7R ; value = ~140 % Parent Peptide

// field: percent of parent; key: chain 2 M12R ; value = ~200 % Parent Peptide

// field: percent of parent; key: chain 2 P11K ; value = ~150 % Parent Peptide

// field: percent of parent; key: chain 2 C9R ; value = ~130 % Parent Peptide

// field: percent of parent; key: chain 2 D8R ; value = ~280 % Parent Peptide

// field: percent of parent; key: chain 2 P11R ; value = ~260 % Parent Peptide

// field: percent of parent; key: chain 2 D8K ; value = ~220 % Parent Peptide
